system_tested: IDO (Homo sapiens (Human))
Sequence (P14902 whole entry): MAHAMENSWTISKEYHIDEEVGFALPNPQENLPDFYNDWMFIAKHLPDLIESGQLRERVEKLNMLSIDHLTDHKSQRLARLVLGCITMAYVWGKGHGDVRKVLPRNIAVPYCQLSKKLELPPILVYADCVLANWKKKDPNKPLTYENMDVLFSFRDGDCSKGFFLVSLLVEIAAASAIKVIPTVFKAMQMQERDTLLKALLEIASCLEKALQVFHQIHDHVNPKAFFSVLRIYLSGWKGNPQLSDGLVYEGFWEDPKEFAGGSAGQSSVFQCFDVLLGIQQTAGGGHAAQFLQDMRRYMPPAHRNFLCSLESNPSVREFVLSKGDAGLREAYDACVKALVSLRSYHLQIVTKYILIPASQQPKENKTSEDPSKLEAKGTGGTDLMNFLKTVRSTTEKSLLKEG
procedure_summary: Kynurenine assay in IFN-γ-stimulated Hela cells
Format: cell-based
conditions: 20 h, read-out: Hela Kyurenine (IC50)
pIC50: −log10 of the molar value.
readout_type: pIC50

Completed entries (count: 5):
smiles_record	readout_type	reported_result
Cc1ccc(NC(=O)Nc2cc(-c3cncc(C(=O)O)c3)cnc2Oc2ccccc2)cc1	pIC50	5.62
COc1ccc(-c2ccc(Oc3ccccc3C(C)(C)C)c(NC(=O)Nc3cccc(Cl)c3Cl)c2)cc1C(=O)O	pIC50	6.89
Cc1ccc(NC(=O)Nc2cc(-c3ccc(C(=O)O)cc3)ccc2Oc2ccccc2C(C)(C)C)cc1	pIC50	6.51
COc1ccc(-c2ccc(Oc3ccccc3C(C)(C)C)c(NC(=O)Nc3ccc(C)cc3)c2)cc1C(=O)O	pIC50	6.43
Cc1ccc(NC(=O)Nc2cc(-c3ccccc3-c3nnn[nH]3)ccc2Oc2cccc3c2CCCC3)cc1	pIC50	6.80

[a] COc1ccc(-c2ccc(Oc3ccccc3C(C)(C)C)c(NC(=O)Nc3ccccc3C)c2)cc1C(=O)O
[b] COc1ccc(-c2ccc(Oc3cccc4ccccc34)c(NC(=O)Nc3ccccc3Cl)c2)cc1C(=O)O
Prompt: Returns the identifier with the smallest measured pIC50 among a and b . API: response body contains the label of the selected item.
Completion: a
(a: 6.31, b: 7.40)

[P] O=C(Nc1ccccc1Cl)Nc1cc(-c2cccc(C(=O)O)c2)ccc1Oc1ccc(Cl)cc1
[Q] COc1ccc(-c2ccc(Oc3cccc4c3CCCC4)c(NC(=O)Nc3cccc(C)c3)c2)cc1C(=O)O
[R] COc1ccc(-c2cnc(Oc3cccc4c3CCCC4)c(NC(=O)Nc3ccccc3Cl)c2C)cc1C(=O)O
[S] CC(C)(C)c1ccccc1Oc1ccc(-c2ccc(F)cc2C(=O)O)cc1NC(=O)Nc1ccccc1Cl
Prompt: Please put the entries in order of rising pIC50. Ranked list of labels, please, in the requested order.
Completion: R, P, S, Q
(R: 5.47, P: 5.94, S: 6.18, Q: 7.00)

[a] CC(C)(C)c1ccccc1Oc1ccc(-c2cccc(C(=O)O)c2)cc1NC(=O)NC1CCCCC1
[b] COc1ccc(-c2ccc(Oc3cccc4c3OC(C)(C)C4)c(NC(=O)Nc3ccc(C)cc3)c2)cc1C(=O)O
[c] COc1ccc(-c2ccc(Oc3ccccc3C(C)(C)C)c(NC(=O)Nc3ccccc3Cl)c2)cc1C(=O)O
Prompt: Would you mind ranking these molecules by ascending pIC50? Quick reminder: the answer is the labels in the order asked.
Completion: b, a, c

[A] Cc1ccccc1NC(=O)Nc1cc(-c2ccc(Cl)cc2C(=O)O)ccc1Oc1ccccc1C(C)(C)C
[B] COc1ccc(-c2ccc(Oc3ccccc3C3CC3)c(NC(=O)Nc3ccccc3Cl)c2)cc1C(=O)O
[C] COc1ccc(-c2ccc(Oc3ccccc3C(C)(C)C)c(NC(=O)Nc3ccccc3C(F)(F)F)c2)cc1C(=O)O
[D] COc1ccc(-c2ccc(Oc3ccccc3C(C)(C)C)c(NC(=O)Nc3cc(C)ccc3C)c2)cc1C(=O)O
Prompt: Could you please order the items by pIC50, going from the lowest number to the highest? # list labels per requested ordering
Completion: A, D, B, C
(A: 6.06, D: 6.59, B: 6.85, C: 7.30)

[P] O=C(Nc1ccc(OC(F)(F)F)cc1)Nc1cc(-c2cc(Cl)cc(C(=O)O)c2)ccc1Oc1ccccc1Cl
[Q] Cc1ccccc1NC(=O)Nc1cc(-c2cccc(C(=O)O)c2)ccc1Oc1cccc(Cl)c1
Prompt: Look at P and Q . Which one has the lower recorded pIC50 number? Response format: the label of the selected entry.
Completion: P
